# Test Summary: chemical genetic growth profiling, strain panel (AID 1159580);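 note: tested at 20 µM; growth read once vehicle control cultures reached saturation at 30 °C; 1 = growth at the plate median or of vehicle wells; lower values mean less growth of the strain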
# Condition Parameters: S. cerevisiae deletion strains, growth OD, locus YKL085W, strain MDH1, hits give low values
About 2,000 (36%) of roughly 5,500 compounds were called active. About 18% were inconclusive and are not listed. The list shows a part of the results.
Observable: normalized growth
Keep the answer to the number alone.

Example results:
• C[C@H]1OC(n2cc(F)c(=O)[nH]c2=O)C(O)[C@@H]1O (stereo partly specified) = 0.981
• COP(=O)(OC)OC=C(Cl)Cl = 0.981
• COc1cc2c(cc1OC)Cc1cc(OC)c(OC)cc1Cc1cc(OC)c(OC)cc1C2 = 0.927
• CC(=O)OCC[N+](C)(C)C = 1.01

normalized growth for CC(C)OC(=O)C(C)(C)Oc1ccc(C(=O)c2ccc(Cl)cc2)cc1 ?
0.947

normalized growth for CCOC(=O)CCC(=O)O[C@H]1[C@H](O[C@@H]2[C@@H](C)[C@H](O[C@H]3C[C@@](C)(OC)[C@@H](O)[C@H](C)O3)[C@@H](C)C(=O)O[C@H](CC)[C@@](C)(O)[C@H](O)[C@@H](C)C(=O)[C@H](C)C[C@@]2(C)O)O[C@H](C)C[C@@H]1N(C)C ?
0.995

normalized growth for COC1=C(OC)C(=O)C(C/C=C(\C)CC/C=C(\C)CC/C=C(\C)CC/C=C(/C)CC/C=C(\C)CC/C=C(\C)CC/C=C(\C)CC/C=C(\C)CC/C=C(\C)CCC=C(C)C)=C(C)C1=O ?
1

normalized growth for CCOC(=O)C(Cc1ccc(O)cc1)NC(C)=O (stereo unspecified) ?
1

normalized growth for CCCCCCCCCCCCCCCC[N+](C)(C)C ?
0.0537

normalized growth for O=C1C=CC(=C(c2ccc(O)cc2)c2ccc(O)cc2)C=C1 ?
0.994

normalized growth for CC(=O)c1c(O)c(C)c(O)c2c1oc1c(C(C)=O)c(O)c(C)c(O)c12 ?
0.982

---

Catalogue of normalized growth readings, one per entry.
# Test Summary: chemical genetic growth profiling, strain panel (AID 1159580)
# Condition Parameters: S. cerevisiae deletion strains, growth OD, locus YLR102C, strain apc9, hits give low values
Among all 5,500 compounds or so, about 2,000 (36%) were called active. Not shown: some 18% with an inconclusive outcome. The list shows a part of the results.
Keep the answer to the number alone.

Example results:
* CC[C@H](/C=C/C(C)C1CCC2C3CCC4=CC(=O)CC[C@]4(C)C3CC[C@]12C)C(C)C (stereo partly drawn) | 0.999
* C=C(C)[C@@H]1[C@H]2OC(=O)[C@@H]1[C@]1(O)C[C@H]3O[C@]34C(=O)O[C@H]2[C@]14C | 1
* CCN(CCO)CCCC(C)Nc1ccnc2cc(Cl)ccc12 (stereo not drawn) | 1.01
* CCC(=O)O[C@H]1CCC2C3CCC4=CC(=O)CC[C@]4(C)C3CC[C@@]21C (stereo partly drawn) | 0.99
* CC(Oc1ccccc1)C(=O)N[C@@H]1C(=O)N2[C@@H]1SC(C)(C)[C@@H]2C(=O)O (stereo partly drawn) | 1.02
* CCN(CC)CCCC(C)Nc1ccnc2cc(Cl)ccc12 (stereo not drawn) | 1

normalized growth for C=C(C)C1CNC(C(=O)O)C1CC(=O)O (stereo not drawn) ?
1.01

normalized growth for COC1=CC(=O)C[C@@H](C)[C@]12Oc1c(Cl)c(OC)cc(OC)c1C2=O ?
1

---

# Test Summary: chemical genetic growth profiling, strain panel (AID 1159580)
# Condition Parameters: S. cerevisiae deletion strains, growth OD, locus YGR078C, strain PAC10, hits give low values
The whole screen tested about 5,500 compounds, of which about 2,000 (36%) were called active. Inconclusive results (about 18%) are left out. The list shows a part of the results.
Observable: normalized growth
Keep the answer to the number alone.

* COc1ccc(CN2C(=O)CSC2c2ccccn2)cc1 (stereo unspecified) | 1.01
* COC1=C(OC)C(=O)C(C/C=C(\C)CC/C=C(\C)CC/C=C(\C)CC/C=C(/C)CC/C=C(\C)CC/C=C(\C)CC/C=C(\C)CC/C=C(\C)CC/C=C(\C)CCC=C(C)C)=C(C)C1=O | 0.996
* C[C@]12C[C@H](O)[C@H]3[C@@H](CCC4=CC(=O)CC[C@@]43C)[C@@H]1CC[C@@H]2C(=O)CO | 1
* COc1cc2c(cc1OC)C1C(=O)c3ccc4c(c3OC1CO2)CCC(C)(C)O4 (stereo unspecified) | 0.996
* COC1=CC(=O)C[C@@H](C)[C@]12Oc1c(Cl)c(OC)cc(OC)c1C2=O | 1.01

Note: attention shifts to another entry.
normalized growth for CCN(CC)CCNC(=O)c1cc(Br)c(N)cc1OC ?
0.975

---

# Test Summary: chemical genetic growth profiling, strain panel (AID 1159580);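 note: tested at 20 µM; growth read once vehicle control cultures reached saturation at 30 °C; 1 = growth at the plate median or of vehicle wells; lower values mean less growth of the strain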
# Condition Parameters: S. cerevisiae deletion strains, growth OD, locus YOR144C, strain elg1, hits give low values
The whole screen tested about 5,500 compounds, of which about 2,000 (36%) were called active. Another 18% or so got no clear call; they are omitted. The list shows a part of the results.
Catalogue of normalized growth readings, one per entry.
Keep the answer to the number alone.

• Cc1cc(O)c(C)c(O)c1C(=O)O = 0.986
• C=C1C([C@]2(C)C(CC(=O)OC)[C@@](C)(COC(C)=O)OC(=O)C[C@@H]2OC(C)=O)[C@@H](OC=O)[C@H](OC(=O)C(OC(C)=O)C(C)CC)[C@@]2(C)[C@H](c3ccoc3)CC(=O)C12O (some centres undefined) = 1.04
• CC1=C(CC(=O)O)c2cc(F)ccc2/C1=C\c1ccc(S(C)=O)cc1 (centres undefined) = 1.02
• CC(C)CC(NC(=O)C(Cc1ccccc1)NC(=O)CNC(=O)CNC(=O)C(N)Cc1ccc(O)cc1)C(=O)O (centres undefined) = 0.995
• NCC1CCC(C(=O)O)CC1 (centres undefined) = 1
• Cc1cc(O)c(C=O)c(O)c1C(=O)O = 1
• CC(N)CCCC(C)(C)O (centres undefined) = 0.995
• COc1cc(NS(=O)(=O)c2ccc(N)cc2)nc(OC)n1 = 0.992

Note: attention shifts to another entry.
normalized growth for CCOC(=O)c1c(C)cc(O)c(C=O)c1O ?
0.136

---

Catalogue of normalized growth readings, one per entry.
# Test Summary: chemical genetic growth profiling, strain panel (AID 1159580);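 note: tested at 20 µM; growth read once vehicle control cultures reached saturation at 30 °C; 1 = growth at the plate median or of vehicle wells; lower values mean less growth of the strain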
# Condition Parameters: S. cerevisiae deletion strains, growth OD, locus YBR023C, strain chs3, hits give low values
Among all 5,500 compounds or so, about 2,000 (36%) were called active. Not shown: some 18% with an inconclusive outcome. This is one part of the list.
Keep the answer to the number alone.

Example results:
- NCCSSCCN: 0.991
- CCCCNc1cc(C(=O)O)cc(S(N)(=O)=O)c1Oc1ccccc1: 0.999
- COC1=C(OC)C(=O)C(C/C=C(\C)CC/C=C(\C)CC/C=C(\C)CC/C=C(/C)CC/C=C(\C)CC/C=C(\C)CC/C=C(\C)CC/C=C(\C)CC/C=C(\C)CCC=C(C)C)=C(C)C1=O: 0.978
- C[C@H]1CC2C([C@@H](O)C[C@@]3(C)C2CC[C@]3(O)C(=O)CO)[C@@]2(C)C=CC(=O)C=C12 (some centres not stated): 1.01
- C=C(C)C1CNC(C(=O)O)C1CC(=O)O (configuration not stated): 0.987
- NCC1CCC(C(=O)O)CC1 (configuration not stated): 0.992

normalized growth for CC(=O)NC1SCCC1=O (configuration not stated) ?
0.977

normalized growth for COc1ccc2cc([C@H](C)CO)ccc2c1 ?
1.01

normalized growth for CC1=C(CC(=O)O)c2cc(F)ccc2/C1=C\c1ccc(S(C)=O)cc1 (configuration not stated) ?
1.02

normalized growth for O=C(O)c1cc2ccccc2c(Cc2c(O)c(C(=O)O)cc3ccccc23)c1O ?
0.996

normalized growth for CC(N)C(=O)OC(C)(C)Cc1ccc(Cl)cc1 (configuration not stated) ?
1.02

---

# Test Summary: chemical genetic growth profiling, strain panel (AID 1159580);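 note: tested at 20 µM; growth read once vehicle control cultures reached saturation at 30 °C; 1 = growth at the plate median or of vehicle wells; lower values mean less growth of the strain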
# Condition Parameters: S. cerevisiae deletion strains, growth OD, locus YDR392W, strain spt3
In all, about 5,500 compounds went through this assay and about 2,000 (36%) were called active. About 18% were inconclusive and are not listed. Cut-off read from the data, not from the text of the source: active = normalized growth mostly below about 0.91 (no sharp cut-off); inconclusive = no clear call, values can overlap the other calls; inactive = mostly above about 0.92. This is one part of the list.
Respond using exactly one of the listed classes: active, inactive

- CC(N)C(=O)OC(C)(C)Cc1ccc(Cl)cc1 (stereo unspecified): inactive
- COc1cc(O)c(C(=O)/C=C/c2ccc(OC)c(O)c2)c(OC)c1: active
- CCC(=O)O[C@H]1[C@H](O[C@@H]2[C@@H](C)[C@H](O[C@H]3C[C@@](C)(OC)[C@@H](O)[C@H](C)O3)[C@@H](C)C(=O)O[C@H](CC)[C@@](C)(O)[C@H](O)[C@@H](C)C(=O)[C@H](C)C[C@@]2(C)O)O[C@H](C)C[C@@H]1N(C)C: active
- COc1ccc(OC)c(C(O)C(C)N)c1 (stereo unspecified): inactive
- CNC(C)[C@H](O)c1ccccc1 (stereo partly specified): inactive

Moving on to the next molecule.
Identify the outcome logged in this assay for the molecule shown: COc1ccc2cc([C@H](C)CO)ccc2c1
inactive
